Data credit: the supplement of paper PMC9170038

- Tested on: K4 kissing-loop RNA reporter;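 note: bound reporter read as fluorescence of individual clusters on recovered sequencing chips by microscopy, with normalized cluster intensities fitted with a binding model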
- PROCEDURE TEXT: apparent KD of K4 kissing-loop reporter; higher = weaker reporter binding
- ASSAY CONTEXT: Eterna round: R107; input ligand: FMN 200 uM
Reported apparent KD of K4 kissing-loop reporter values are given for each entry in this list.
READOUT: apparent KD of K4 kissing-loop reporter (nM)

>  <BIOPOLYMER SEQUENCE>
UUUUGGUUCUGAGGAUAUUCGAAGAAAUAUAGUGAUGUUAUAUAAGGAGGAGGAUGGAGGGAGGAAGGAGAAGGCAGAAGAGGAG [ExFMNB.I]

>  <READOUT>
apparent KD of K4 kissing-loop reporter

>  <QUANTITATIVE RESULT>
890

$$$$
>  <BIOPOLYMER SEQUENCE>
UGAUUGGCGAAAGUAGUGAUGUUACGAAUAUAGGAUAUUAGAGGAAUAAGAAGGAUAAAUGAGAAAUAGGUAAAUUGUUGGUUGG [FMN same state]

>  <READOUT>
apparent KD of K4 kissing-loop reporter

>  <QUANTITATIVE RESULT>
101

$$$$
>  <BIOPOLYMER SEQUENCE>
GGAUUCGGCGCGGCCGCCACUUCCGGUGGCUGGUGUCAUGGUGCGCGUGAGUGAUGUUUAUGUGGGAGGACCGGGCGUUGAGUCC [whbob_Ex_Tryp_B_w45]

>  <READOUT>
apparent KD of K4 kissing-loop reporter

>  <QUANTITATIVE RESULT>
577

$$$$
>  <BIOPOLYMER SEQUENCE>
AAGGGCGGGACUUCCUCGCCGGAUAGAGAUACCAGCCCUGCAAAGGGCCCUUGGCAGCUCACUGACCUCAGUGAUGUUGAGGUUC [Maanveri]

>  <READOUT>
apparent KD of K4 kissing-loop reporter

>  <QUANTITATIVE RESULT>
252

$$$$
>  <BIOPOLYMER SEQUENCE>
GGAUAGGACAGAGGAUAUGGCAGUCUACAAAGUAGGCUGAAAUAAAUCCUUGAAUGGAGUGAUGUUCCAGAAGGCUGUCCUAUCG [FmnBX 23 #SwitchBubble #StaticStem #Palindromic]

>  <READOUT>
apparent KD of K4 kissing-loop reporter

>  <QUANTITATIVE RESULT>
911

$$$$
>  <BIOPOLYMER SEQUENCE>
UAAGGGUUAUGUCCUCGGUGCGAAGAGCUCCGAGGACCGGUACGGCCGCCACUCGGAAGUUCUGAGUGAGGGAGUGAUGUUCCCU [Skye_Ex_TA]

>  <READOUT>
apparent KD of K4 kissing-loop reporter

>  <QUANTITATIVE RESULT>
312

$$$$
